test system: HeLa; test: Antiproliferative activity against human HeLa cells after 72 hrs by MTT assay; type: functional, cell-based
pIC50: −log10 of the molar value.
Property label: pIC50

[[record]]
substance_smiles = "CC(C)=CCOc1ccc(C(=O)C2=C3OC(C)(C)[C@@H](CC=C(C)C)C[C@@]34C[C@@H](CC=C(C)C)C(C)(C)[C@@](CC=C(C)C)(C2=O)C4=O)cc1O"
study_target = "HeLa"
bound_type = "="
numeric_value = 4.92

[[record]]
substance_smiles = "COc1cccc2c1C(=O)c1c(O)c3c(c(O)c1C2=O)C[C@@](O)(C(=O)CO)C[C@@H]3O[C@H]1C[C@H](N)[C@H](O)[C@H](C)O1"
study_target = "HeLa"
bound_type = "="
numeric_value = 5.77

[[record]]
substance_smiles = "CC(C)=CCOc1ccc(C(=O)C2=C3OC(C)(C)[C@@H](CC=C(C)C)C[C@@]34C[C@@H](CC=C(C)C)C(C)(C)[C@@](CC=C(C)C)(C2=O)C4=O)cc1OCC=C(C)C"
study_target = "HeLa"
bound_type = "<"
numeric_value = 4.70

[[record]]
substance_smiles = "CC(C)=CC[C@H]1C[C@@]23C[C@@H](CC=C(C)C)C(C)(C)[C@@](CC=C(C)C)(C(=O)C(C(=O)c4ccc(OCCCCCN5CCOCC5)c(O)c4)=C2OC1(C)C)C3=O"
study_target = "HeLa"
bound_type = "<"
numeric_value = 4.70


###

test system: HeLa; assay: Antiproliferative activity against human HeLa cells after 72 hrs by MTT assay; format: functional, cell-based
Quick reference: IC50 of the listed items.
Property label: IC50 (µM)

[[record]]
substance_smiles = "CC(C)=CC[C@H]1C[C@]23C[C@@H](CC=C(C)C)C(C)(C)[C@H]4CCC(C)(C)O[C@]42OC(=O)C(C(=O)c2ccc(O)c(O)c2)=C3OC1(C)C"
property_label = "IC50"
bound_type = ">"
numeric_value = 20

[[record]]
substance_smiles = "CC(C)=CC[C@H]1C[C@@]23C[C@@H](CC=C(C)C)C(C)(C)[C@@](CC=C(C)C)(C(=O)C(C(=O)c4ccc(OCc5ccccc5)c(O)c4)=C2OC1(C)C)C3=O"
property_label = "IC50"
bound_type = "="
numeric_value = 15.9

[[record]]
substance_smiles = "COc1ccc(C(=O)C2=C3OC(C)(C)[C@@H](CC=C(C)C)C[C@@]34C[C@@H](CC=C(C)C)C(C)(C)[C@@](CC=C(C)C)(C2=O)C4=O)cc1OC"
property_label = "IC50"
bound_type = "="
numeric_value = 19.7


###

// values below are reported IC50
system: HeLa; test: Antiproliferative activity against human HeLa cells after 72 hrs by MTT assay; format: functional, cell-based
Property label: IC50

[[record]]
substance_smiles = "CCCCCC(=O)Oc1cc(C(=O)C2=C3OC(C)(C)[C@@H](CC=C(C)C)C[C@@]34C[C@@H](CC=C(C)C)C(C)(C)[C@H]3CCC(C)(C)O[C@]34OC2=O)ccc1O"
result = "> 20 µM"

[[record]]
substance_smiles = "CC(C)=CC[C@H]1C[C@@]23C[C@@H](CC=C(C)C)C(C)(C)[C@@](CC=C(C)C)(C(=O)C(C(=O)c4ccc(OC(=O)c5ccccc5)c(OC(=O)c5ccccc5)c4)=C2OC1(C)C)C3=O"
result = "> 20 µM"

[[record]]
substance_smiles = "CC(C)=CC[C@H]1C[C@@]23C[C@@H](CC=C(C)C)C(C)(C)[C@@](CC=C(C)C)(C(=O)C(C(=O)c4ccc(OCCCCCBr)c(OCCCCCBr)c4)=C2OC1(C)C)C3=O"
result = "> 20 µM"


###

system: HeLa; test: Antiproliferative activity against human HeLa cells after 72 hrs by MTT assay; assay type: functional, cell-based
Property label: IC50

[[record]]
substance_smiles = "CC(C)=CC[C@H]1C[C@@]23C[C@@H](CC=C(C)C)C(C)(C)[C@@](CC=C(C)C)(C(=O)C(C(=O)c4ccc(OCCCCCBr)c(O)c4)=C2OC1(C)C)C3=O"
result = "15.5 µM"

[[record]]
substance_smiles = "CC(C)=CC[C@H]1C[C@@]23C[C@@H](CC=C(C)C)C(C)(C)[C@@](CC=C(C)C)(C(=O)C(C(=O)c4ccc(OC(=O)CCCCCBr)c(OC(=O)CCCCCBr)c4)=C2OC1(C)C)C3=O"
result = "> 20 µM"

[[record]]
substance_smiles = "CC(C)=CC[C@H]1C[C@@]23C[C@@H](CC=C(C)C)C(C)(C)[C@@](CC=C(C)C)(C(=O)C(C(=O)c4ccc(O)c(OC(=O)c5ccccc5)c4)=C2OC1(C)C)C3=O"
result = "6.17 µM"

[[record]]
substance_smiles = "CCCCCCCC(=O)Oc1ccc(C(=O)C2=C3OC(C)(C)[C@@H](CC=C(C)C)C[C@@]34C[C@@H](CC=C(C)C)C(C)(C)[C@H]3CCC(C)(C)O[C@]34OC2=O)cc1OC(=O)CCCCCCC"
result = "> 20 µM"

[[record]]
substance_smiles = "C#CCOc1ccc(C(=O)C2=C3OC(C)(C)[C@@H](CC=C(C)C)C[C@@]34C[C@@H](CC=C(C)C)C(C)(C)[C@@](CC=C(C)C)(C2=O)C4=O)cc1O"
result = "> 20 µM"

[[record]]
substance_smiles = "CC(C)=CC[C@H]1C[C@]23C[C@@H](CC=C(C)C)C(C)(C)[C@H]4CCC(C)(C)O[C@]42OC(=O)C(C(=O)c2ccc(OC(=O)c4ccc(Br)cc4)c(OC(=O)c4ccc(Br)cc4)c2)=C3OC1(C)C"
result = "> 20 µM"

[[record]]
substance_smiles = "CCN(CC)CCCCCOc1ccc(C(=O)C2=C3OC(C)(C)[C@@H](CC=C(C)C)C[C@@]34C[C@@H](CC=C(C)C)C(C)(C)[C@@](CC=C(C)C)(C2=O)C4=O)cc1OCCCCCN(CC)CC"
result = "11.3 µM"

[[record]]
substance_smiles = "COc1ccc(C(=O)Oc2ccc(C(=O)C3=C4OC(C)(C)[C@@H](CC=C(C)C)C[C@@]45C[C@@H](CC=C(C)C)C(C)(C)[C@H]4CCC(C)(C)O[C@]45OC3=O)cc2OC(=O)c2ccc(OC)cc2)cc1"
result = "> 20 µM"

